target: MLLT1 (Homo sapiens, UniProt Q03111); conditions: read-out: MLLT1 assay IC50; HTRF, 6His tagged MLLT1, biotinylated H3K9cro peptide; compound 20 μM to 20 nM, 11 data points in duplicate
Sequence (Q03111 whole entry): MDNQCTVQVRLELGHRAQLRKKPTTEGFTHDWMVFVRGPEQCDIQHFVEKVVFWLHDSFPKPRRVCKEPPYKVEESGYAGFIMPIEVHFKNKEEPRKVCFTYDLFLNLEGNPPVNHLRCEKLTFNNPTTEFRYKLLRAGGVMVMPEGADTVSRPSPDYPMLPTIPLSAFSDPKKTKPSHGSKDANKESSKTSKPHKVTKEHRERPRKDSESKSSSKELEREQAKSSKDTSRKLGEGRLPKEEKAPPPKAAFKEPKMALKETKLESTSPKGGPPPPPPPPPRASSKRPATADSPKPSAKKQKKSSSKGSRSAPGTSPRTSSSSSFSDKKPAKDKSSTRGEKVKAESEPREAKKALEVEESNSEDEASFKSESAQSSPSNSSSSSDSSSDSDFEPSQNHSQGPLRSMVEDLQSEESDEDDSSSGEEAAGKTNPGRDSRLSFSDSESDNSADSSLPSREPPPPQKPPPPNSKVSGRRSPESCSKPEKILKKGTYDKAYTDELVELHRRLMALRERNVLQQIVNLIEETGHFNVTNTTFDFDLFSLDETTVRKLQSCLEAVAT
pIC50: −log10 of the molar value.
Give measured pIC50 for each item. Keep answers brief.

**Q:** Which pIC50 is reported for this compound? C[C@@H]1C[C@H](c2cn3cc(NC(=O)c4ccc5c(cnn5C)c4)ncc3n2)N(C)C1 (relative stereo)
**A:** > 6.82

**Q:** What about this compound? CO[C@H]1C[C@H](c2cn3cc(NC(=O)c4ccc5c(cnn5C)c4)ncc3n2)N(C)C1 (stereo in doubt)
**A:** 5.82 to 6.82

**Q:** What about this compound? C[C@H]1C[C@H](c2cn3cc(NC(=O)c4ccc5c(cnn5C)c4)ncc3n2)N(C)C1 (relative stereo)
**A:** 5.82 to 6.82

**Q:** What about this compound? CO[C@H]1C[C@@H](c2cn3cc(NC(=O)c4ccc5c(cnn5C)c4)ncc3n2)N(C)C1 (stereo in doubt)
**A:** 5.82 to 6.82

**Q:** What about this compound? CO[C@@H]1C[C@H](c2cn3cc(NC(=O)c4ccc5c(cnn5C)c4)ncc3n2)N(C)C1 (stereo in doubt)
**A:** 5.82 to 6.82

**Q:** What about this compound? CO[C@@H]1C[C@@H](c2cn3cc(NC(=O)c4ccc5c(cnn5C)c4)ncc3n2)N(C)C1 (stereo in doubt)
**A:** 5.82 to 6.82
